Test: protein stability index of a GFP-peptide fusion (yeast GPS) (PSI 1-4); higher = more stable; sorted into four equal gates, so the index is relative within each strain
Conditions: ubr1∆
In this section we review reported protein stability index values for a set of sequences.
test readout: protein stability index

input_sequence="TQDESEIKDAETSCDNY [SMC4]" test_readout="protein stability index" value_measured=2.98
input_sequence="TQKDSARVSPRNNVANK [YAR002W/NUP60]" test_readout="protein stability index" value_measured=3.02
input_sequence="IMVLDASIGQAAEQQSK [SRP54]" test_readout="protein stability index" value_measured=2.97
input_sequence="SESKDSDKPSLPSAVDG [YLR335W/NUP2]" test_readout="protein stability index" value_measured=2.95

----------
The entries below come with measured protein stability index values attached.
Assay: protein stability index of a GFP-peptide fusion (yeast GPS) (PSI 1-4); higher = more stable; sorted into four equal gates, so the index is relative within each strain
Details: ubr1∆
test readout: protein stability index

input_sequence="SIRSRRPYQVNVLIGGY [PRE1]" value_measured=3.04
input_sequence="RHLEKEGIIKPISKHSK [RPS25A]" value_measured=3.01
input_sequence="KLNKKLQHLRSRCHLVT [SRP68]" value_measured=3.27
input_sequence="MEQCKQRYQDLSQQQKD [YIL149C/MLP2]" value_measured=2.95
input_sequence="IRNIVEAAAVRDLSEAS [RPS26A]" value_measured=2.49
input_sequence="NLENMSIQDTSTVAKNV [YCG1]" value_measured=3.21
input_sequence="GSLACDTADEAKTLIPS [RPB4]" value_measured=3.17
input_sequence="IIHFHSHPEKRMIPPRM [SSN3]" value_measured=3.13
input_sequence="HLGLDDPQDVFNYNIFM [SIR2]" value_measured=3.26
input_sequence="SLMSSQNKLFYITNADD [SIR3]" value_measured=1.49
input_sequence="KALVLFVPVPALSAYHK [RPS7B]" value_measured=2.4
input_sequence="DEHNELMRQALAIKDSK [RPO21]" value_measured=2.91
input_sequence="IPFPDHNQSPRNTYQSA [RPB2]" value_measured=2.78
input_sequence="AGAVAPEDIWVRAVNTG [RPP0]" value_measured=1.31
input_sequence="GIACAGKGLQSAIDVLD [RPN2]" value_measured=2.75
input_sequence="GSTGGLGASFGQQQQQS [YGL172W/NUP49]" value_measured=3.1
input_sequence="GLIVNPVKVSGTIKKIE [POP5]" value_measured=2.26
input_sequence="YSPIEKESPWKILMYQY [RRP6]" value_measured=1.44
input_sequence="EMSNKVLKVDKRFMNTS [BRR2]" value_measured=2.93
input_sequence="KELKEKEAAESPEEADV [PUP2]" value_measured=3.32
input_sequence="EPPGSNTSFSFTKPPAN [YOR098C/NUP1]" value_measured=2.96
input_sequence="HLRYQPDGVVVHRDDPA [SNF6]" value_measured=3.28
input_sequence="AVAVVVDPIQSVKGKVV [RPN11]" value_measured=2.84
input_sequence="DNKEKDFELEISWCSLS [PRE10]" value_measured=3.13
input_sequence="DSFSVPNRLVKELQYDN [PRE2]" value_measured=3.37
input_sequence="PNRITLTDHRKETWLHE [SRB8]" value_measured=3.22
input_sequence="QFNEFIQIMANIDQEGS [PGD1]" value_measured=2.54
input_sequence="LGLEYIIRLLPINLENN [SRB8]" value_measured=1.39
input_sequence="QIQLAESELSLLEETQA [SMC4]" value_measured=3.05
input_sequence="ETEEIDPELLRSYIFGG [RPL5]" value_measured=3.23
input_sequence="DNVSFIEEAKSIRRQDY [REC8]" value_measured=3.15
input_sequence="NSKPEKSSDSNDSNPSF [YLR335W/NUP2]" value_measured=2.76
input_sequence="KMSDGFNGADIRNCATE [RPT4]" value_measured=3.3
input_sequence="DVQVDAEEKREAVIDEK [ITC1]" value_measured=2.6
input_sequence="KKMDDYIHRIGRTGRAA [PRP28]" value_measured=3.35
input_sequence="EKRIQYAKDILQKEFLP [RPB2]" value_measured=2.08
input_sequence="LARHLPAELDLRGSLLS [RPC82]" value_measured=3.15
input_sequence="VTKGGTVENPLRNWEEL [PRP28]" value_measured=2.89
input_sequence="DIYFKLKKLEKEYELLT [RPT3]" value_measured=1.98
input_sequence="EAQDEASLQQQQQQDLQ [SNF6]" value_measured=3.2
input_sequence="TSQKMKKMVYVLDSMTK [SRP54]" value_measured=2.96
input_sequence="TKKPLMVKNVKPSSPPD [SIR4]" value_measured=2.69
input_sequence="PLVYRHELITNIGETAG [RPB9]" value_measured=3.02
input_sequence="IYNSASKASMQKEQNVN [YCS4]" value_measured=2.17
input_sequence="AQLDGRIGVLQARMMQQ [NSL1]" value_measured=2.61
input_sequence="IHSKSMSVERGIRWELI [RPT1]" value_measured=3.04
input_sequence="PNLNMKYRKRQLVTREA [FAS2]" value_measured=3.05
input_sequence="MCHIVRKFHELNDHIDD [GRR1]" value_measured=1.72
input_sequence="RQFLKANKTNLIESLNT [YML103C/NUP188]" value_measured=2.99
input_sequence="GSTSLIEGMEQRIIKEL [ARP7]" value_measured=2.71
input_sequence="INDFKKIGRENENENED [POP5]" value_measured=2.49
input_sequence="RGFFHLNEALLQCPMLY [CSN12]" value_measured=1.99
